experiment: PK comparison QD, BID, TID oral dosing; type: in vivo; details: male, CD-1, mouse, plasma, po, 0.3 g/kg, PO 0.3 g/kg/dose BID, last dose
Measurement Name: Cmax

Problem: Answer with reported Cmax of `OC[C@@H](O)[C@@H](O)[C@@H](O)CO`
Solution: 27400 ng/mL

* * *

assay: 28-day repeat-dose oral toxicokinetics; type: in vivo, Bama minipig; conditions: male, Bama, minipig, plasma, po, 0.3 g/kg, 0.3 g/kg/dose BID, Day 28, Male; mean ± SD; read-out: AUC0-24
Measurement Name: AUC(0-t) (µg·h/mL)
I only need the number, in µg·h/mL, no unit after it.

Problem: Answer with reported AUC(0-t) of `OC[C@@H](O)[C@@H](O)[C@@H](O)CO`
Solution: 585
